System: FMOC11 (patient-derived high-grade serous ovarian cancer cells)
Test: drug sensitivity score (DSS3, normalised partial AUC of % inhibition dose-response) (DSS (score)); higher = more sensitive (stronger inhibition of viability); extreme values may be limits of the assay
Details: 72 h; library: FO5A; assay format: 2D, 384-well, CellTiter-Glo
parameter: drug sensitivity score
Hey, just send me the number, nothing else.

CN1CCC(COc2cnc(-c3cccc(Cn4nc(-c5cccc(C#N)c5)ccc4=O)c3)nc2)CC1 ... 0
C=CC[C@@H]1/C=C(\C)C[C@H](C)C[C@H](OC)[C@H]2O[C@@](O)(C(=O)C(=O)N3CCCC[C@H]3C(=O)O[C@H](/C(C)=C/[C@@H]3CC[C@@H](O)[C@H](OC)C3)[C@H](C)[C@@H](O)CC1=O)[C@H](C)C[C@@H]2OC ... 1.4
COc1cc(CCc2cc(NC(=O)c3ccc(N4CC(C)NC(C)C4)cc3)n[nH]2)cc(OC)c1 (stereo not given) ... 0

Need drug sensitivity score, item Cc1cc(C(C)Nc2ccccc2)c2nc(N3CCOCC3)cc(=O)n2c1 (stereo not given)
0.3

Need drug sensitivity score, item Nc1nccc(-c2c(-c3ccc(F)cc3)ncn2C2CCCCC2)n1
2.5

Origin of the recorded values: the supplement of paper PMC9938120
